Notes on IC50 obtained with Melanocortin receptor 4 (Homo sapiens, UniProt P32245).
Sequence (P32245 whole entry): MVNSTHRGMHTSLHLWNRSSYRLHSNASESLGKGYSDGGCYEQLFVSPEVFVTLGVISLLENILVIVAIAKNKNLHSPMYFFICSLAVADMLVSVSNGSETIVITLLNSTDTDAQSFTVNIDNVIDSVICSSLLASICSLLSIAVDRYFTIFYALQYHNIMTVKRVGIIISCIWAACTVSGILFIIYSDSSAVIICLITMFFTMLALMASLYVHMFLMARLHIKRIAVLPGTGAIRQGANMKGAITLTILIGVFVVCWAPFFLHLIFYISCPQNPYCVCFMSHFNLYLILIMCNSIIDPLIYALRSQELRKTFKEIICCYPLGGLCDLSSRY
Metric: IC50 (µM)

{"Smiles Str": "CC(=O)N[C@H](Cc1ccccc1)C(=O)N[C@@H](CCCN=C(N)N)C(=O)N[C@@H](Cc1c[nH]c2ccccc12)C(N)=O", "Value Modifier": "=", "Result Number": 2.08}
{"Smiles Str": "CC(=O)N[C@H](Cc1ccccc1)C(=O)N[C@@H](CCCNC(=N)N)C(=O)N[C@H](Cc1c[nH]c2ccccc12)C(N)=O", "Value Modifier": "=", "Result Number": 9.16}
{"Smiles Str": "CC(=O)N[C@@H](Cc1ccccc1)C(=O)N[C@H](CCCN=C(N)N)C(=O)N[C@H](Cc1c[nH]c2ccccc12)C(N)=O", "Value Modifier": ">", "Result Number": 10}
{"Smiles Str": "CC(=O)N[C@H](Cc1ccccc1)C(=O)N[C@H](CCCNC(=N)N)C(=O)N[C@H](Cc1c[nH]c2ccccc12)C(N)=O", "Value Modifier": ">", "Result Number": 10}
{"Smiles Str": "CC(=O)NCC(=O)N[C@H](Cc1ccccc1)C(=O)N[C@@H](CCCN=C(N)N)C(=O)N[C@H](Cc1c[nH]c2ccccc12)C(N)=O", "Value Modifier": ">", "Result Number": 10}

Values were extracted from ChEMBL document CHEMBL1130083.
